System: 743489-274-T-PDC complex spheroid growth
Run Description: Anticancer human tumor 743489-274-T-PDC patient-derived renal cell carcinoma cell line growth inhibition [AhR]
Conditions: second compound 3.16 µM; first compound 3.16 µM; stronger effect = lower value
Quantity Kind: viability, T/C (%)
Numbers only; they are read as %.

I have this molecule here, O=C(c1cc(Cc2n[nH]c(=O)c3ccccc23)ccc1F)N1CCN(C(=O)C2CC2)CC1 + Cc1cncc(-c2nc(NCCc3c[nH]c4ccccc34)c3ncn(C(C)C)c3n2)c1 , and I need its recorded viability, T/C.
85.7

I have this molecule here, NS(=O)(=O)OCC1CC(n2ccc3c(NC4CCc5ccccc54)ncnc32)CC1O (stereo not drawn) + Cc1ccccc1N=Nc1ccc(NC(=O)c2ccnn2C)c(C)c1 , and I need its recorded viability, T/C.
152

I have this molecule here, O=C(C=Cc1cccc(S(=O)(=O)Nc2ccccc2)c1)NO + Cc1cncc(-c2nc(NCCc3c[nH]c4ccccc34)c3ncn(C(C)C)c3n2)c1 , and I need its recorded viability, T/C.
73.1

###

Could you please report measured viability, T/C for the items listed next?
Test system: 743489-274-T-PDC complex spheroid growth
Run Description: Anticancer human tumor 743489-274-T-PDC cell line growth inhibition [AhR];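 further: spheroids exposed to agents for 7 days before readout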;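 on viability, T/C: 100% = DMSO vehicle control wells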
Conditions: second compound 0.316 µM; first compound 0.0316 µM; stronger effect = lower value
Numbers only; they are read as %.

I have this compound here, CC(C)c1c(-c2ccccc2)nc2c(C#N)c[nH]n2c1=O + CC(CO)NC(=O)c1cc(-c2ccc(Cl)cc2)nn(-c2cnn(C)c2)c1=O , and I need its recorded viability, T/C.
93

I have this compound here, COc1cc(Nc2ncc3c(n2)-c2ccc(Cl)cc2C(c2c(F)cccc2OC)=NC3)ccc1C(=O)O + CC(CO)NC(=O)c1cc(-c2ccc(Cl)cc2)nn(-c2cnn(C)c2)c1=O , and I need its recorded viability, T/C.
98.7

I have this compound here, Nc1ncn(C2CC(O)C(CO)O2)c(=O)n1 (stereo not drawn) + CC(CO)NC(=O)c1cc(-c2ccc(Cl)cc2)nn(-c2cnn(C)c2)c1=O , and I need its recorded viability, T/C.
91

I have this compound here, Nc1ccccc1NC(=O)c1ccc(CNC(=O)OCc2cccnc2)cc1 + Cc1cncc(-c2nc(NCCc3c[nH]c4ccccc34)c3ncn(C(C)C)c3n2)c1 , and I need its recorded viability, T/C.
92.2

I have this compound here, COc1ccc([C@@H](O)c2cc(-c3ncnc4cc(N5CCOCC5)ccc34)c(F)cc2Cl)nn1 + CC(CO)NC(=O)c1cc(-c2ccc(Cl)cc2)nn(-c2cnn(C)c2)c1=O , and I need its recorded viability, T/C.
86

I have this compound here, CC1(C)CCC(CN2CCN(c3ccc(C(=O)NS(=O)(=O)c4ccc(NCC5CCOCC5)c([N+](=O)[O-])c4)c(Oc4cnc5[nH]ccc5c4)c3)CC2)=C(c2ccc(Cl)cc2)C1 + Cc1ccccc1N=Nc1ccc(NC(=O)c2ccnn2C)c(C)c1 , and I need its recorded viability, T/C.
95.7

I have this compound here, CC[C@@]1(O)C(=O)OCc2c1cc1n(c2=O)Cc2cc3c(CN(C)C)c(O)ccc3nc2-1 + Cc1ccccc1N=Nc1ccc(NC(=O)c2ccnn2C)c(C)c1 , and I need its recorded viability, T/C.
89.3

I have this compound here, CC1(C)CCC(CN2CCN(c3ccc(C(=O)NS(=O)(=O)c4ccc(NCC5CCOCC5)c([N+](=O)[O-])c4)c(Oc4cnc5[nH]ccc5c4)c3)CC2)=C(c2ccc(Cl)cc2)C1 + Cc1cncc(-c2nc(NCCc3c[nH]c4ccccc34)c3ncn(C(C)C)c3n2)c1 , and I need its recorded viability, T/C.
98.5

I have this compound here, CC1COCCN1c1cc(-c2ccnn2C)c2ccnc(-c3ccn[nH]3)c2n1 (stereo not drawn) + CC(CO)NC(=O)c1cc(-c2ccc(Cl)cc2)nn(-c2cnn(C)c2)c1=O , and I need its recorded viability, T/C.
93.9

I have this compound here, CC(C)c1c(-c2ccccc2)nc2c(C#N)c[nH]n2c1=O + Cc1cncc(-c2nc(NCCc3c[nH]c4ccccc34)c3ncn(C(C)C)c3n2)c1 , and I need its recorded viability, T/C.
112

I have this compound here, O=C(c1cc(Cc2n[nH]c(=O)c3ccccc23)ccc1F)N1CCN(C(=O)C2CC2)CC1 + Cc1ccccc1N=Nc1ccc(NC(=O)c2ccnn2C)c(C)c1 , and I need its recorded viability, T/C.
94.4

I have this compound here, Nc1ncn(C2CC(O)C(CO)O2)c(=O)n1 (stereo not drawn) + Cc1cncc(-c2nc(NCCc3c[nH]c4ccccc34)c3ncn(C(C)C)c3n2)c1 , and I need its recorded viability, T/C.
93.5

I have this compound here, COc1cc(Nc2ncc3c(n2)-c2ccc(Cl)cc2C(c2c(F)cccc2OC)=NC3)ccc1C(=O)O + Cc1cncc(-c2nc(NCCc3c[nH]c4ccccc34)c3ncn(C(C)C)c3n2)c1 , and I need its recorded viability, T/C.
97.7

I have this compound here, Nc1ccccc1NC(=O)c1ccc(CNC(=O)OCc2cccnc2)cc1 + CC(CO)NC(=O)c1cc(-c2ccc(Cl)cc2)nn(-c2cnn(C)c2)c1=O , and I need its recorded viability, T/C.
89.1

I have this compound here, Cn1ncnc1C1c2n[nH]c(=O)c3cc(F)cc(c23)NC1c1ccc(F)cc1 (stereo not drawn) + CC(CO)NC(=O)c1cc(-c2ccc(Cl)cc2)nn(-c2cnn(C)c2)c1=O , and I need its recorded viability, T/C.
80.6

I have this compound here, Nc1ccn(C2OC(CO)C(O)C2(F)F)c(=O)n1 (stereo not drawn) + Cc1ccccc1N=Nc1ccc(NC(=O)c2ccnn2C)c(C)c1 , and I need its recorded viability, T/C.
66.4

I have this compound here, COc1cccc2c1C(=O)c1c(O)c3c(c(O)c1C2=O)CC(O)(C(=O)CO)CC3OC1CC(N)C(O)C(C)O1 (stereo not drawn) + Cc1ccccc1N=Nc1ccc(NC(=O)c2ccnn2C)c(C)c1 , and I need its recorded viability, T/C.
107

I have this compound here, COc1cc(C2c3cc4c(cc3C(OC3OC5COC(C)OC5C(O)C3O)C3COC(=O)C23)OCO4)cc(OC)c1O (stereo not drawn) + Cc1ccccc1N=Nc1ccc(NC(=O)c2ccnn2C)c(C)c1 , and I need its recorded viability, T/C.
91.2

I have this compound here, COc1ccc([C@@H](O)c2cc(-c3ncnc4cc(N5CCOCC5)ccc34)c(F)cc2Cl)nn1 + Cc1cncc(-c2nc(NCCc3c[nH]c4ccccc34)c3ncn(C(C)C)c3n2)c1 , and I need its recorded viability, T/C.
94.2

I have this compound here, COc1cccc2c1C(=O)c1c(O)c3c(c(O)c1C2=O)CC(O)(C(=O)CO)CC3OC1CC(N)C(O)C(C)O1 (stereo not drawn) + CC(CO)NC(=O)c1cc(-c2ccc(Cl)cc2)nn(-c2cnn(C)c2)c1=O , and I need its recorded viability, T/C.
93.7

I have this compound here, O=C(C=Cc1cccc(S(=O)(=O)Nc2ccccc2)c1)NO + Cc1cncc(-c2nc(NCCc3c[nH]c4ccccc34)c3ncn(C(C)C)c3n2)c1 , and I need its recorded viability, T/C.
91.6

I have this compound here, NS(=O)(=O)OCC1CC(n2ccc3c(NC4CCc5ccccc54)ncnc32)CC1O (stereo not drawn) + Cc1ccccc1N=Nc1ccc(NC(=O)c2ccnn2C)c(C)c1 , and I need its recorded viability, T/C.
109

I have this compound here, COc1cccc2c1C(=O)c1c(O)c3c(c(O)c1C2=O)CC(O)(C(=O)CO)CC3OC1CC(N)C(O)C(C)O1 (stereo not drawn) + Cc1cncc(-c2nc(NCCc3c[nH]c4ccccc34)c3ncn(C(C)C)c3n2)c1 , and I need its recorded viability, T/C.
89.7

###

Tested on: 743489-274-T-PDC complex spheroid growth
Run Description: Anticancer human tumor 743489-274-T-PDC cell line growth inhibition [AhR];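 further: spheroids exposed to agents for 7 days before readout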
Conditions: curve of first compound; second compound 10 µM
Could you please report measured IC50 for the items listed next?

I have this compound here, Nc1ncn(C2CC(O)C(CO)O2)c(=O)n1 (stereo not drawn) + Cc1ccccc1N=Nc1ccc(NC(=O)c2ccnn2C)c(C)c1 , and I need its recorded IC50.
> 1000 nM

I have this compound here, CCc1c2c(nc3ccc(O)cc13)-c1cc3c(c(=O)n1C2)COC(=O)[C@]3(O)CC + CC(CO)NC(=O)c1cc(-c2ccc(Cl)cc2)nn(-c2cnn(C)c2)c1=O , and I need its recorded IC50.
> 300 nM

I have this compound here, CC(C)CC(NC(=O)C(Cc1ccccc1)NC(=O)c1cnccn1)B(O)O (stereo not drawn) + Cc1cncc(-c2nc(NCCc3c[nH]c4ccccc34)c3ncn(C(C)C)c3n2)c1 , and I need its recorded IC50.
13.9 nM

###

Test system: 743489-274-T-PDC complex spheroid growth
Run Description: Anticancer human tumor 743489-274-T-PDC cell line growth inhibition [AhR];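 further: spheroids exposed to agents for 7 days before readout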;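 on viability, T/C: 100% = DMSO vehicle control wells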
Conditions: second compound 0.1 µM; first compound 3 µM; stronger effect = lower value
Could you please report measured viability, T/C for the items listed next?
Numbers only; they are read as %.

I have this compound here, O=C(C=Cn1cnc(-c2cc(C(F)(F)F)cc(C(F)(F)F)c2)n1)NNc1cnccn1 + Cc1ccccc1N=Nc1ccc(NC(=O)c2ccnn2C)c(C)c1 , and I need its recorded viability, T/C.
104

I have this compound here, CCN(c1cc(-c2ccc(CN3CCOCC3)cc2)cc(C(=O)NCc2c(C)cc(C)[nH]c2=O)c1C)C1CCOCC1 + CC(CO)NC(=O)c1cc(-c2ccc(Cl)cc2)nn(-c2cnn(C)c2)c1=O , and I need its recorded viability, T/C.
112

I have this compound here, CCN(c1cc(-c2ccc(CN3CCOCC3)cc2)cc(C(=O)NCc2c(C)cc(C)[nH]c2=O)c1C)C1CCOCC1 + Cc1cncc(-c2nc(NCCc3c[nH]c4ccccc34)c3ncn(C(C)C)c3n2)c1 , and I need its recorded viability, T/C.
94.4

I have this compound here, O=C(C=Cn1cnc(-c2cc(C(F)(F)F)cc(C(F)(F)F)c2)n1)NNc1cnccn1 + Cc1cncc(-c2nc(NCCc3c[nH]c4ccccc34)c3ncn(C(C)C)c3n2)c1 , and I need its recorded viability, T/C.
96.5

I have this compound here, CCN(c1cc(-c2ccc(CN3CCOCC3)cc2)cc(C(=O)NCc2c(C)cc(C)[nH]c2=O)c1C)C1CCOCC1 + Cc1ccccc1N=Nc1ccc(NC(=O)c2ccnn2C)c(C)c1 , and I need its recorded viability, T/C.
90.4

I have this compound here, O=C(C=Cn1cnc(-c2cc(C(F)(F)F)cc(C(F)(F)F)c2)n1)NNc1cnccn1 + CC(CO)NC(=O)c1cc(-c2ccc(Cl)cc2)nn(-c2cnn(C)c2)c1=O , and I need its recorded viability, T/C.
98.3
